Test system: XF 498 CNS
Test: NCI tumour cell line growth inhibition, 48 h
Note to self: values exactly at 70 µM are Condition met. So TGI at or above 70 µM is Condition met, below is Condition not met.

compound	experimental-system	group-label
COc1ccc2c(c1)[C@@H](NC(C)=O)CCc1cc(OC)c(OC)c(OC)c1-2	XF 498 CNS	Condition not met
CC(C)(CN1CCCCC1)C(=O)/C=C/c1ccccc1	XF 498 CNS	Condition not met
NC(N)NCCCc1cn2c(n1)C1CCCN1C(=O)C2Cc1ccccc1 (centres undefined)	XF 498 CNS	Condition met
CC(=O)CCC#Cc1ccccc1C(=O)C(C)=[N+]=[N-]	XF 498 CNS	Condition met
O=C(Cc1ccccc1)NN1C(=O)C(Cl)C1c1ccc(Cl)cc1 (centres undefined)	XF 498 CNS	Condition met
C/C(=N/NC(=O)c1ccccc1S(N)(=O)=O)C(CN1CCCCC1)C(C1=C(O)C2C=CC=CC2OC1=O)c1ccccc1 (centres undefined)	XF 498 CNS	Condition met
O=S1OC(c2ccccc2)(c2ccccc2)C(c2ccccc2)(c2ccccc2)O1	XF 498 CNS	Condition met
Cc1c2cnccc2c(C)c2c1c1ccccc1n2CCOC(=O)c1ccccc1	XF 498 CNS	Condition not met
Cc1c(C(Cc2ccccc2N(C)C(=O)/C=C\C(=O)O)c2c[nH]c3ccccc23)c2ccccc2n1C (centres undefined)	XF 498 CNS	Condition not met
COc1ccc(C2COc3c(ccc(OC)c3OC)C2=O)cc1OC (centres undefined)	XF 498 CNS	Condition met

Value source: PubChem BioAssay (NCI)
